molecular target: canine FcRn complex (FcRn-alpha subunit and beta-microglobulin), His-tagged, biotin labeled (canine); experiment: SPR (Biacore), biotin-FcRn captured on SA surface, IgG flowed over, pH 6, 15 C
OUTCOME_MEASURE: Kd
A bare number is not enough; add the unit after it.

Q. Request the reported Kd associated with canine IgGB (65) mAb with mutation D312A (antibody, part only; not given: variable domains of unnamed mAb, not shown: another chain or arm of the molecule) constant: ASTTAPSVFPLAPSCGSTSGSTVALACLVSGYFPEPVTVSWNSGSLTSGVHTFPSVLQSSGLYSLSSMVTVPSSRWPSETFTCNVAHPASKTKVDKPVPKRENGRVPRPPDCPKCPAPEMLGGPSVFIFPPKPKDTLLIARTPEVTCVVVDLDPEDPEVQISWFVDGKQMQTAKTQPREEQFNGTYRVVSVLPIGHQAWLKGKQFTCKVNNKALPSPIERTISKARGQAHQPSVYVLPPSREELSKNTVSLTCLIKDFFPPDIDVEWQSNGQQEPESKYRTTPPQLDEDGSYFLYSKLSVDKSRWQRGDTFICAVMHEALHNHYTQESLSHSPGK
A. 10.3 nM

meta.source: patent US20260139055A1
